These data points were gathered from patent US20210403591A1.

Target: T1, mTfR-1 K384A on Expi293 cells (mouse, UniProt Q62351 1-763)
T1 construct: whole, on cells
T1 sequence (Q62351 whole entry K384A): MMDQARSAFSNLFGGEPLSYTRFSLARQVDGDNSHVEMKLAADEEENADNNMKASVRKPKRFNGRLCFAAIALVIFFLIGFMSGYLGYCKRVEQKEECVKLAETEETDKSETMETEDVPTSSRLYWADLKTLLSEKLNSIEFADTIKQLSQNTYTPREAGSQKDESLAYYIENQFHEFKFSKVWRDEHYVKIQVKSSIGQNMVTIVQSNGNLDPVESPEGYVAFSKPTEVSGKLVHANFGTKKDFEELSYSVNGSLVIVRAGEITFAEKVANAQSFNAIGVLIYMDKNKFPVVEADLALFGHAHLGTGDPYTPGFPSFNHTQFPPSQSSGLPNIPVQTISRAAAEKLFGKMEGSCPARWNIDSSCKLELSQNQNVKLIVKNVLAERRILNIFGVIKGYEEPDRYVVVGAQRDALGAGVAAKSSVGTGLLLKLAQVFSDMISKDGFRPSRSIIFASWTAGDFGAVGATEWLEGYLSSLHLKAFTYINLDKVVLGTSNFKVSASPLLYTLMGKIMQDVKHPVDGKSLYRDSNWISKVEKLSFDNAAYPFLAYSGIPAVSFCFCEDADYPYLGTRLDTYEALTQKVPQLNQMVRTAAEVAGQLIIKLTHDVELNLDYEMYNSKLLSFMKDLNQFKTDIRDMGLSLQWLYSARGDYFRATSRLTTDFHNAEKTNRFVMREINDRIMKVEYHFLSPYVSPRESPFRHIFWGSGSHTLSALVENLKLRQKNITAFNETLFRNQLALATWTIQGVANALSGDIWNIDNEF
Assay: FACS, transfected Expi293 cells
MEASURED_METRIC: % double-positive cells vs WT (%)
# number only, unit % dropped from output

BINDER	UNIT_SYMBOL	% double-positive cells vs WT
Clone C VNAR-hFc fusion (Fc fusion, not shown: a dimerising Fc or GST, bivalent VNAR-Fc; also called Clone C-hFc) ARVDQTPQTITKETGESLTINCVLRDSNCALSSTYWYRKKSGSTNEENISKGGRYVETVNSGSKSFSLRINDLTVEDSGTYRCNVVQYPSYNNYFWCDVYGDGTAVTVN	%	187
Clone C variant 13 VNAR-hFc (Fc fusion, not shown: a dimerising Fc or GST, also called Clone C v13; Clone C var; 13) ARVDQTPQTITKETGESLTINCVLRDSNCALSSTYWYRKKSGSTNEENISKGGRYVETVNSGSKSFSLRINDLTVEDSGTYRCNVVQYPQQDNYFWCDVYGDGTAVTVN	%	85
Clone C variant 18 VNAR-hFc (Fc fusion, not shown: a dimerising Fc or GST, also called Clone C v18; Clone C var; 18) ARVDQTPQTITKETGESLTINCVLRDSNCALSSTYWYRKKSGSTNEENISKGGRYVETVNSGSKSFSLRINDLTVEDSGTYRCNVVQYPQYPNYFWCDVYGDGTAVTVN	%	147

Now examine the next entry.
Reported % double-positive cells vs WT of 8D3 antibody (anti-mouse TfR-1 control; 8D3-hFc formatted antibody) (antibody, V domains shown) VH: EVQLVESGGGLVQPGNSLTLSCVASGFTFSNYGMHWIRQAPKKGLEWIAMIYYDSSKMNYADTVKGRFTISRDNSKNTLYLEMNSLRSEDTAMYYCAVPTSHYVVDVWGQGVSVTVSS VL: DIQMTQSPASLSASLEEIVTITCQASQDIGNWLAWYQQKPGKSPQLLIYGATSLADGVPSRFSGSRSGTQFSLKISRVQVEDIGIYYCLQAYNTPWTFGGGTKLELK : 35
